Test system: NCI/ADR-RES
Experiment: Cytotoxicity against DOX-resistant human MCF7/ADR cells assessed as cell growth inhibition at 5 uM incubated for 48 hrs by CCK8 assay relative to control
Format: functional
Please mark True if the recorded inhibition at 5 µM is equal to or greater than 20%, and False if it falls below.

{"COMPOUND": "COc1ccc2[nH]c(C(=O)Nc3ccc(-c4ccc(C(=O)N5CCc6cc(OC)c(OC)cc6C5)o4)cc3)cc2c1", "CLASS": "False"}
{"COMPOUND": "COc1cc2c(cc1OC)CN(C(=O)c1ccc(-c3ccc(NC(=O)c4cc5cc(C)ccc5[nH]4)cc3)o1)CC2", "CLASS": "False"}
{"COMPOUND": "C/C=C/C[C@@H](C)[C@@H](O)[C@H]1C(=O)N[C@@H](CC)C(=O)N(C)CC(=O)N(C)[C@@H](CC(C)C)C(=O)N[C@@H](C(C)C)C(=O)N(C)[C@@H](CC(C)C)C(=O)N[C@@H](C)C(=O)N[C@H](C)C(=O)N(C)[C@@H](CC(C)C)C(=O)N(C)[C@@H](CC(C)C)C(=O)N(C)[C@@H](C(C)C)C(=O)N1C", "CLASS": "True"}
{"COMPOUND": "COc1cc2c(cc1OC)CN(C(=O)c1ccc(-c3ccc(NC(=O)c4cc5cc([N+](=O)[O-])ccc5[nH]4)cc3)o1)CC2", "CLASS": "False"}
{"COMPOUND": "COc1cc2c(cc1OC)CN(C(=O)c1ccc(-c3ccc(NC(=O)C4CC4)cc3)o1)CC2", "CLASS": "False"}
{"COMPOUND": "CCC(=O)Nc1ccc(-c2ccc(C(=O)N3CCc4cc(OC)c(OC)cc4C3)o2)cc1", "CLASS": "True"}
{"COMPOUND": "COc1cc2c(cc1OC)CN(C(=O)c1ccc(-c3ccc(NC(=O)c4cc5ccccc5s4)cc3)o1)CC2", "CLASS": "True"}
{"COMPOUND": "COc1cc2c(cc1OC)CN(C(=O)c1ccc(-c3ccc(NC(=O)C(C)C)cc3)o1)CC2", "CLASS": "False"}
{"COMPOUND": "CCCCC(=O)Nc1ccc(-c2ccc(C(=O)N3CCc4cc(OC)c(OC)cc4C3)o2)cc1", "CLASS": "False"}
{"COMPOUND": "COc1cc2c(cc1OC)CN(C(=O)c1ccc(-c3ccc(NC(=O)c4cc5c(C)cccc5[nH]4)cc3)o1)CC2", "CLASS": "False"}
{"COMPOUND": "COc1cc2c(cc1OC)CN(C(=O)c1ccc(-c3ccc(NC(=O)c4cc5ccc(Br)cc5[nH]4)cc3)o1)CC2", "CLASS": "False"}
{"COMPOUND": "COc1cc2c(cc1OC)CN(C(=O)c1ccc(-c3ccc(NC(=O)c4cccc5ccccc45)cc3)o1)CC2", "CLASS": "True"}
{"COMPOUND": "COc1cc2c(cc1OC)CN(C(=O)c1ccc(-c3ccc(NC(=O)c4cccc5[nH]ccc45)cc3)o1)CC2", "CLASS": "False"}
{"COMPOUND": "COc1cc2c(cc1OC)CN(C(=O)c1ccc(-c3ccc(NC(=O)c4cc5ccccc5o4)cc3)o1)CC2", "CLASS": "True"}
{"COMPOUND": "COc1cc2c(cc1OC)CN(C(=O)c1ccc(-c3ccc(NC(=O)c4cc5c(F)cc(F)cc5[nH]4)cc3)o1)CC2", "CLASS": "False"}
{"COMPOUND": "COc1ccc(CCN(C)CCCC(C#N)(c2ccc(OC)c(OC)c2)C(C)C)cc1OC (stereo not given)", "CLASS": "False"}
{"COMPOUND": "COc1cc2c(cc1OC)CN(C(=O)c1ccc(-c3ccc(NC(=O)CC(C)(C)C)cc3)o1)CC2", "CLASS": "False"}
{"COMPOUND": "COc1cc2c(cc1OC)CN(C(=O)c1ccc(-c3ccc(NC(=O)c4cc5cc(Cl)ccc5[nH]4)cc3)o1)CC2", "CLASS": "False"}
{"COMPOUND": "COc1cc2c(cc1OC)CN(C(=O)c1ccc(-c3ccc(NC(=O)c4ccc5ccccc5c4)cc3)o1)CC2", "CLASS": "True"}
{"COMPOUND": "C/C=C/C(=O)Nc1ccc(-c2ccc(C(=O)N3CCc4cc(OC)c(OC)cc4C3)o2)cc1", "CLASS": "False"}
{"COMPOUND": "COc1ccc2cc(C(=O)Nc3ccc(-c4ccc(C(=O)N5CCc6cc(OC)c(OC)cc6C5)o4)cc3)[nH]c2c1", "CLASS": "False"}
{"COMPOUND": "COc1cc2c(cc1OC)CN(C(=O)c1ccc(-c3ccc(NC(=O)c4cc5ccc(F)cc5[nH]4)cc3)o1)CC2", "CLASS": "False"}
{"COMPOUND": "COc1cc2c(cc1OC)CN(C(=O)c1ccc(-c3ccc(NC(=O)Cc4cccc5ccccc45)cc3)o1)CC2", "CLASS": "True"}

Where do these numbers come from? They come from ChEMBL document CHEMBL5325411.
